- Test system: six-mutation introduced D-type amino acid dehydrogenase (Asp95Ser, Met155Leu, Val159Gly, Thr174Ile, Arg184Met, His230Asn)
- EXPERIMENTAL_DETAILS: D-amino acid synthesis activity, six-mutation enzyme
- Type: biochemical, Numidum massiliense
- ASSAY_CONDITIONS: 5 mM 2-oxo acid, 0.1 mM NADPH, 200 mM ammonium chloride, pH 9.5, 50° C.
Mark t for reported D-amino acid synthesis activity (specific activity), Six-mutation enzyme, NADPH of 1 µmol/min/mg or greater; mark f for anything smaller.

Answered cases to consult:
CCCCCCC(=O)C(=O)O    t
CSCCC(=O)C(=O)O    t
CC(C)CC(=O)C(=O)O    t

In plain terms: is recorded D-amino acid synthesis activity (specific activity), Six-mutation enzyme, NADPH at least 1 µmol/min/mg for O=C(O)C(=O)Cc1ccccc1 ?
t

Check this compound for D-amino acid synthesis activity (specific activity), Six-mutation enzyme, NADPH at or above 1 µmol/min/mg: CCC(C)C(=O)C(=O)O (stereo not shown)
f

Assess whether reported D-amino acid synthesis activity (specific activity), Six-mutation enzyme, NADPH for CCC(=O)C(=O)O sits at 1 µmol/min/mg or higher.
f

Is it the case that O=C(O)CC(=O)C(=O)O has D-amino acid synthesis activity (specific activity), Six-mutation enzyme, NADPH reaching or exceeding 1 µmol/min/mg?
f

For this compound, is measured D-amino acid synthesis activity (specific activity), Six-mutation enzyme, NADPH 1 µmol/min/mg or higher? CC(C)C(=O)C(=O)O
f

Hello, I need to know if CC(=O)C(=O)O has measured D-amino acid synthesis activity (specific activity), Six-mutation enzyme, NADPH not below 1 µmol/min/mg. Thanks!
f
